Hey, just so you know, these numbers are from patent US20220064286A1.

# targetOrSystem: cynomolgus monkey (cyno) TIGIT protein (cynomolgus monkey, UniProt A0A7N9I9V4 89-209)
# Sequence (A0A7N9I9V4 entry or part of it): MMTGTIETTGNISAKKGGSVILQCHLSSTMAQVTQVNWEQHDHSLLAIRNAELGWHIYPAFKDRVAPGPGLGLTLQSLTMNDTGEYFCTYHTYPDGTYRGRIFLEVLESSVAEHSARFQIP
# test: SPR, captured mAb
pKd: −log10 of the molar value.
Give Satisfied when the value for pKd is at least 9. Give Not satisfied when it is less.

- binder: "h7E7.L5H9 (antibody, V domains shown, Fully humanized version; FR/HVR pieces) VH: EVQLVQSGAEVKKPGASVKVSCKASGYTFTEYSIYWVRQAPGQRLEWMGRIDPKNGRTYYVDKFKNRVTITRDTSASTAYMELSSLRSEDTAVYYCARIYGFYFDFWGQGTLVTVSS VL: DIQLTQSPSFLSASVGDRVTITCKGSQNVNKYLVWYQQKPGKAPKLLIYNTDNLQSGVPSRFSGSGSGTEFTLTISSLQPEDFATYYCYQYNNGFTFGQGTKVEIK"
  assignedLabel: "Not satisfied"
- binder: "rat10A5 (antibody, V domains shown, SD rat-derived; rat V domains as FR/HVR pieces; also called 1.10A5; Chimeric 1.10A5) VH: QVSLKESGPGILQPSHTLSLTCSFSGFSLTTYGMGVSWIRQPSEKGLEWLASIWWNGNTYYNPSLRSRLTVSKDTSNDQAFLNVTSVDTTDTATYYCAHTGGAVITWFAYWGQGTLVTVSS VL: NIVMTQSPKSMSISIGDRVTMNCKASQSVGKNIAWYQQKTGQSPQLLIYYASNRYTGVPDRFTGGGSGTDFTLTINSVQAEDAAFFYCQHIYNSPYPFGTGTKLEIK"
  assignedLabel: "Satisfied"
- binder: "h7E7.L1H1 (antibody, V domains shown, First humanized version; FR/HVR pieces in order; also called h1.7E7.L1H1) VH: EVQLVQSGAEVKKPGASVKVSCKASGYTFTEYSIYWVRQAPGQRLEIIGRIDPKNGRTYYVDKFKNRATLTADTSASTAYMELSSLRSEDTAVYFCTRIYGFYFDFWGQGTLVTVSS VL: DIQLTQSPSFLSASVGDRVTITCKGSQNVNKYLVWYQQKPGKAPKLLIYNTDNLQSGIPSRFSGSGSGTEYTLTISSLQPEDFATYFCYQYNNGFTFGQGTKVEIK"
  assignedLabel: "Satisfied"
- binder: "h15C8.L5H1 (antibody, V domains shown, VL: I58V, Y71F, F87Y against h15C8.L1H1; FR/HVR pieces) VH: EVQLVQSGAEVKKPGASVKVSCKASGYTFTEHSIYWLRQAPGQRLEIIGRIDPKNGRTYFVDKFKNRATLTTDTSASTAYMELSSLRSEDTAVYFCARIDGFYFDFWGQGTLVTVSS VL: DIQLTQSPSFLSASVGDRVTITCKGSQNVNKYLVWYQQKPGKAPKLLIYSTDNLQSGVPSRFSGSGSGTEFTLTISSLQPEDFATYYCYQYNNGFTFGQGTKVEIK"
  assignedLabel: "Not satisfied"
- binder: "h7E7.L4H1 (antibody, V domains shown, VL: F87Y against h7E7.L1H1; FR/HVR pieces) VH: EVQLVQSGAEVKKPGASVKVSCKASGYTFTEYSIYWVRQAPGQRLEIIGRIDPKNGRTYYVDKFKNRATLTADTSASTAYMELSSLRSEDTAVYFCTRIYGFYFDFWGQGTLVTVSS VL: DIQLTQSPSFLSASVGDRVTITCKGSQNVNKYLVWYQQKPGKAPKLLIYNTDNLQSGIPSRFSGSGSGTEYTLTISSLQPEDFATYYCYQYNNGFTFGQGTKVEIK"
  assignedLabel: "Satisfied"
- binder: "h7E7.L1H8 (antibody, V domains shown, VH: T93A against h7E7.L1H1; FR/HVR pieces) VH: EVQLVQSGAEVKKPGASVKVSCKASGYTFTEYSIYWVRQAPGQRLEIIGRIDPKNGRTYYVDKFKNRATLTADTSASTAYMELSSLRSEDTAVYFCARIYGFYFDFWGQGTLVTVSS VL: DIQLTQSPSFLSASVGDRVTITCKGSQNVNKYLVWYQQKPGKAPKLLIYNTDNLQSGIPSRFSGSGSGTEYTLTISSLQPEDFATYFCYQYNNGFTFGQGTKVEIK"
  assignedLabel: "Satisfied"
- binder: "h7E7.L1H4 (antibody, V domains shown, VH: A67V against h7E7.L1H1; FR/HVR pieces) VH: EVQLVQSGAEVKKPGASVKVSCKASGYTFTEYSIYWVRQAPGQRLEIIGRIDPKNGRTYYVDKFKNRVTLTADTSASTAYMELSSLRSEDTAVYFCTRIYGFYFDFWGQGTLVTVSS VL: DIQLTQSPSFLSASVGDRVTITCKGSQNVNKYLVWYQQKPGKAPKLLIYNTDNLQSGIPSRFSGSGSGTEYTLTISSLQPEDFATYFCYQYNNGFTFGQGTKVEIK"
  assignedLabel: "Satisfied"
